# Target desc: Cytochrome P450 2D6 (Homo sapiens)
# Sequence (P10635 whole entry): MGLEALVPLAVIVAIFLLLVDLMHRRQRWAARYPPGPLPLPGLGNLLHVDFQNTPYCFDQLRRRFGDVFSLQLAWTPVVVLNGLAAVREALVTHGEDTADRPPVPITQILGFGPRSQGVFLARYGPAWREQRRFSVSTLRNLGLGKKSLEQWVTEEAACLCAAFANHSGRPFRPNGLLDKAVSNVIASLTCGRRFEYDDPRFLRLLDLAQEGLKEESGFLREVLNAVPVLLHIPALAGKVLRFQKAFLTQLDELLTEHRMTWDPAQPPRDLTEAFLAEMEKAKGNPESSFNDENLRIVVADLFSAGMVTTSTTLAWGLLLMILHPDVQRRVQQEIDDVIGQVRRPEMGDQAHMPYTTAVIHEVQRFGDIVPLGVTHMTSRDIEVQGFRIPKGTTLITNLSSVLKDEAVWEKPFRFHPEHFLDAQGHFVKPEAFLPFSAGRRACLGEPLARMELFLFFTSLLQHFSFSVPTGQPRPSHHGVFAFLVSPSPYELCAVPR

Smiles text: C=C[C@H]1C[N@@]2CC[C@H]1C[C@@H]2[C@@H](O)c1ccnc2ccccc12
Ki: 21 µM

###

IC50 data for Cytochrome P450 2D6 (Homo sapiens, UniProt P10635) follow.
Measurement kind: IC50 (µM)

Molecule: COC(=O)C12OC[C@]34[C@H]([C@@H](O)[C@@H]1O)[C@@]1(C)CC(=O)C(O)=C(C)[C@@H]1C[C@H]3OC(=O)[C@H](OC(=O)/C=C(\C)C(C)C)[C@@H]24 (single isomer, unassigned) [BRUCEANTIN]
Quantitative readout: 514

Molecule: O=CC(NC(=O)N(CCCl)N=O)C(O)C(O)C(O)CO (stereo not given)
Quantitative readout: 2020

Molecule: COc1ccc2c(c1[N+](=O)[O-])CC[C@@H]1[C@@H]2CC[C@]2(C)C(=O)CC[C@@H]12
Quantitative readout: 196

Molecule: C=C[C@H]1C[N@@]2CC[C@H]1C[C@@H]2[C@@H](O)c1ccnc2ccccc12
Quantitative readout: 1.8

Molecule: CN(C)CCN1C(=O)c2cccc3cc(N)cc(c23)C1=O [AMONAFIDE]
Quantitative readout: 39.6

###

# Target desc: Cytochrome P450 2D6 (Homo sapiens)
pIC50: −log10 of the molar value.
Decision: pIC50 >= 4 yields Satisfied, all other cases yield Not satisfied.

Compound: O=C(O)CCCc1ccc(N(CCCl)CCCl)cc1
Group: Satisfied
//
Compound: CC(=O)N(C)c1ccc(Nc2cc(C)nc3ccc4[nH]cnc4c23)cc1
Group: Satisfied
//
Compound: CNCCC=C1c2ccccc2CCc2ccccc21
Group: Satisfied
//
Compound: Nc1ccc2c(c1)CN1C(=O)c3ccccc3C1=N2
Group: Satisfied
//
Compound: O=C(Cn1ccnc1[N+](=O)[O-])N(CCO)CCO
Group: Not satisfied
//
Compound: NCC(O)CSCc1ccc(Cl)cc1 (stereo unspecified)
Group: Satisfied
//
Compound: COc1ccc(S(=O)(=O)N/N=C/C(=O)O)cc1
Group: Not satisfied
//
Compound: NCCCc1c(-c2ccccc2)nc(N)[nH]c1=O
Group: Not satisfied
//
Compound: CN(C)CCOc1ccc(/C(=C/c2ccccc2)c2ccccc2)cc1
Group: Satisfied
//
Compound: Clc1ccc(Cl)c(SCCCN2CCNCC2)c1
Group: Satisfied
